In this section, each of the compounds is paired with its reported pEC50.
- tested.system: α1β2γ2 GABAA receptor (Homo sapiens (Human), UniProt P14867+P47870)
- experiment.description: Patch clamp electrophysiology of recombinant α1β2γ2 GABAA receptors in LTK cells
- Type: cell-based
- assay.conditions: potentiation of GABA EC20 (2 μM) current; read-out: GABAa alpha1 (α1β2γ2)EC50
pEC50: −log10 of the molar value.

Example entries and their recorded answers appear below.
> print(dat)
                                   compound  metric        result
1  C[C@@]1(O)CC[C@H]2[C@H](CC[C@@H]3[C@@H]2CC[C@]2(C)[C@@H](C(=O)Cn4ncc5c4CCCC5)CC[C@@H]32)C1 [SA-8]   pEC50  5.70 to 6.00
2  C[C@@]1(O)CC[C@H]2[C@H](CC[C@@H]3[C@@H]2CC[C@]2(C)[C@@H](C(=O)Cn4ncc5cccnc54)CC[C@@H]32)C1 [SA-19]   pEC50        < 5.70

For the next question, use this compound.
*Q* Recorded pEC50 for C[C@@]1(O)CC[C@H]2[C@H](CC[C@@H]3[C@@H]2CC[C@]2(C)[C@@H](C(=O)Cn4cc5ncccc5n4)CC[C@@H]32)C1 [SA-4] , please?
*A* 5.70 to 6.00

---

- tested.system: α1β2γ2 GABAA receptor (Homo sapiens (Human), UniProt P14867+P47870)
- experiment.description: Patch clamp electrophysiology of recombinant α1β2γ2 GABAA receptors in LTK cells
- Format: cell-based
- assay.conditions: LTK, 10 μM compound, Qpatch, Ltk cells, GABA EC20 2 μM; read-out: α1β2γ2 GABA Qpatch in Ltk (Efficacy at 10 μm)
In this section, each of the molecules is paired with its reported activity at 10 µM.

Example entries and their recorded answers appear below.
> print(dat)
                                   molecule       result
1  C[C@@]1(O)CC[C@H]2[C@H](CC[C@@H]3[C@@H]2CC[C@]2(C)[C@@H](C(=O)Cn4nnc5ccc(Cl)cc54)CC[C@@H]32)C1 [SA-39]  100 to 500%
2  C[C@]12CC[C@H]3[C@@H](CC[C@@H]4C[C@@](O)(C(F)F)CC[C@@H]43)[C@@H]1CC[C@@H]2C(=O)Cn1nc2ccccc2n1 [SA-92]  100 to 500%

*Q* Recorded activity at 10 µM for COC[C@@]1(O)CC[C@H]2[C@H](CC[C@@H]3[C@@H]2CC[C@]2(C)[C@@H](C(=O)Cn4nnc5ccccc54)CC[C@@H]32)C1 [SA-115] , please?
*A* > 500%

*Q* How about C[C@@]1(O)CC[C@H]2[C@H](CC[C@@H]3[C@@H]2CC[C@]2(C)[C@@H](C(=O)Cn4nnc5cnccc54)CC[C@@H]32)C1 [SA-12] ?
*A* 100 to 500%

*Q* How about COC[C@@]1(O)CC[C@H]2[C@@H](CC[C@@H]3[C@@H]2CC[C@]2(C)[C@@H](C(=O)Cn4nnc5cnccc54)CC[C@@H]32)C1 [SB-43] ?
*A* 100 to 500%

*Q* How about Cc1c2ccccc2nn1CC(=O)[C@H]1CC[C@H]2[C@@H]3CC[C@@H]4C[C@](C)(O)CC[C@@H]4[C@H]3CC[C@]12C [SA-46] ?
*A* > 500%

---

- tested.system: rat brain cortical membranes ([35S]-TBPS binding, GABA receptor complex)
- experiment.description: Steroid inhibition of [35S]-TBPS binding
- assay.conditions: 3 nM [35S]-TBPS, in the presence of 5 μM GABA
metric: IC50

*Q* Recorded IC50 for `C[C@@]1(O)CC[C@H]2[C@H](CC[C@@H]3[C@@H]2CC[C@]2(C)[C@@H](C(=O)Cn4nc5cc(F)c(F)cc5n4)CC[C@@H]32)C1` , please?
*A* 10 to 50 nM

---

In this section, each of the compounds is paired with its reported activity at 10 µM.
- tested.system: α1β2γ2 GABAA receptor (Homo sapiens (Human), UniProt P14867+P47870)
- experiment.description: Patch clamp electrophysiology of recombinant α1β2γ2 GABAA receptors in LTK cells
- Assay type: cell-based
- assay.conditions: LTK, 10 μM compound, Qpatch, Ltk cells, GABA EC20 2 μM; read-out: α1β2γ2 GABA Qpatch in Ltk (Efficacy at 10 μm)

Example entries and their recorded answers appear below.
> print(dat)
                         chemical.structure             metric       result
1  C[C@@]1(O)CC[C@H]2[C@H](CC[C@@H]3[C@@H]2CC[C@]2(C)[C@@H](C(=O)Cn4nnc5ncc(Cl)cc54)CC[C@@H]32)C1  activity at 10 µM  100 to 500%
2  C[C@]12CC[C@H]3[C@@H](CC[C@H]4C[C@@](O)(CF)CC[C@@H]43)[C@@H]1CC[C@@H]2C(=O)Cn1ncc2ncccc21  activity at 10 µM   10 to 100%

*Q* Recorded activity at 10 µM for `C[C@]12CC[C@H]3[C@@H](CC[C@H]4C[C@@](O)(CF)CC[C@@H]43)[C@@H]1CC[C@@H]2C(=O)Cn1nnc2ccccc21` , please?
*A* 100 to 500%

---

- tested.system: α1β2γ2 GABAA receptor (Homo sapiens (Human), UniProt P14867+P47870)
- experiment.description: Patch clamp electrophysiology of recombinant α1β2γ2 GABAA receptors in LTK cells
- Assay type: cell-based
- assay.conditions: potentiation of GABA EC20 (2 μM) current; read-out: GABAa alpha1 (α1β2γ2)EC50
- Procedure: Cellular electrophysiology is used to measure the pharmacological properties of our GABAA receptor modulators in heterologous cell systems. Each compound is tested for its ability to affect GABA mediated currents at a submaximal agonist dose (GABA EC20=2 μM). […] Whole cell currents were measured with HEKA EPC-10 amplifiers using PatchMaster software or by using the high throughput QPatch platform (Sophion). […]
metric: EC50

> print(dat)
                         chemical.structure       result
1  C[C@@]1(O)CC[C@H]2[C@H](CC[C@@H]3[C@@H]2CC[C@]2(C)[C@@H](C(=O)Cn4ncc5ccccc54)CC[C@@H]32)C1    1 to 2 µM
2  C[C@@]1(O)CC[C@H]2[C@H](CC[C@@H]3[C@@H]2CC[C@]2(C)[C@@H](C(=O)Cn4nc5ccccc5n4)CC[C@@H]32)C1  0.5 to 1 µM

*Q* Recorded EC50 for `C[C@@]1(O)CC[C@H]2[C@H](CC[C@@H]3[C@@H]2CC[C@]2(C)[C@@H](C(=O)Cn4cc5cccnc5n4)CC[C@@H]32)C1` , please?
*A* > 2 µM

---

- tested.system: α1β2γ2 GABAA receptor (Homo sapiens (Human), UniProt P14867+P47870)
- experiment.description: Patch clamp electrophysiology of recombinant α1β2γ2 GABAA receptors in LTK cells
- Assay type: cell-based
- assay.conditions: LTK, 10 μM compound, Qpatch, Ltk cells, GABA EC20 2 μM; read-out: α1β2γ2 GABA Qpatch in Ltk (Efficacy at 10 μm)
metric: activity at 10 µM

Example entries and their recorded answers appear below.
> print(dat)
                         chemical.structure                             tested.system             metric       result
1  C[C@@]1(O)CC[C@H]2[C@H](CC[C@@H]3[C@@H]2CC[C@]2(C)[C@@H](C(=O)Cn4nnc5ncccc54)CC[C@@H]32)C1  α1β2γ2 GABAA receptor (Homo sapiens (Human), UniProt P14867+P47870)  activity at 10 µM       > 500%
2  C[C@@]1(O)CC[C@H]2[C@H](CC[C@@H]3[C@@H]2CC[C@]2(C)[C@@H](C(=O)Cn4nnc5cc(Cl)ccc54)CC[C@@H]32)C1  α1β2γ2 GABAA receptor (Homo sapiens (Human), UniProt P14867+P47870)  activity at 10 µM  100 to 500%
3  C[C@]12CC[C@H]3[C@@H](CC[C@@H]4C[C@@](O)(CF)CC[C@@H]43)[C@@H]1CC[C@@H]2C(=O)Cn1ncc2ccncc21  α1β2γ2 GABAA receptor (Homo sapiens (Human), UniProt P14867+P47870)  activity at 10 µM  100 to 500%
4  C[C@@]1(O)CC[C@H]2[C@H](CC[C@@H]3[C@@H]2CC[C@]2(C)[C@@H](C(=O)Cn4ncc5ncncc54)CC[C@@H]32)C1  α1β2γ2 GABAA receptor (Homo sapiens (Human), UniProt P14867+P47870)  activity at 10 µM  100 to 500%
5  C[C@@]1(O)CC[C@H]2[C@H](CC[C@@H]3[C@@H]2CC[C@]2(C)[C@@H](C(=O)Cn4nc5cccnc5n4)CC[C@@H]32)C1  α1β2γ2 GABAA receptor (Homo sapiens (Human), UniProt P14867+P47870)  activity at 10 µM       > 500%

*Q* Recorded activity at 10 µM for `CCOC[C@@]1(O)CC[C@H]2[C@@H](CC[C@@H]3[C@@H]2CC[C@]2(C)[C@@H](C(=O)Cn4nc5ccncc5n4)CC[C@@H]32)C1` , please?
*A* 100 to 500%

*Q* How about `C[C@@]1(O)CC[C@H]2[C@H](CC[C@@H]3[C@@H]2CC[C@]2(C)[C@@H](C(=O)Cn4nc(Cl)c5ccccc54)CC[C@@H]32)C1` ?
*A* 100 to 500%

*Q* How about `COc1cccc2c1nnn2CC(=O)[C@H]1CC[C@H]2[C@@H]3CC[C@@H]4C[C@](C)(O)CC[C@@H]4[C@H]3CC[C@]12C` ?
*A* 100 to 500%

*Q* How about `COC[C@@]1(O)CC[C@H]2[C@@H](CC[C@@H]3[C@@H]2CC[C@]2(C)[C@@H](C(=O)Cn4nnc5ccccc54)CC[C@@H]32)C1` ?
*A* 100 to 500%

*Q* How about `CC[C@@]1(O)CC[C@H]2[C@@H](CC[C@@H]3[C@@H]2CC[C@]2(C)[C@@H](C(=O)Cn4cc5ncccc5n4)CC[C@@H]32)C1` ?
*A* 100 to 500%
